Quick list: Kd per entry.
studySystem: T1, G478 (Rhed) (Homo sapiens, UniProt Q8WYQ5 285-478)
T1 sequence: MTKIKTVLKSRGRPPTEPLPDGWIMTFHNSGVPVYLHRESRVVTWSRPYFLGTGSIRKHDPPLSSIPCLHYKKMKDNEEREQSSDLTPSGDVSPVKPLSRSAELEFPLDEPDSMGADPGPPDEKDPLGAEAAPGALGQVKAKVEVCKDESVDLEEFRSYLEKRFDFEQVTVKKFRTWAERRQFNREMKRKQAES
protocolSummary: EMSA; 50 mM Tris-HCl pH 7.5, 250 mM NaCl, 10% glycerol, 0.2 mg/ml BSA, 1 mM DTT, 2 mM EDTA; 1 uM RNA in 10 uL; on ice 60 min; 4% native PAGE at 4 C, ethidium bromide
conditionDetails: protein: recombinant; (purified as for G4; theoretical dimer 44 kDa implies no GFP); chain copies: 2; hairpin
assayEndpoint: Kd (µM)

> print(dat)
                                     binder  assayendpoint  measuredresult
1  ACUGGAAGCCAAGAAAGAUGGGCUUUCAGU (structured_RNA) [10L10_noUGU]             Kd            8.57
2  ACUGGAAGCUGUGAAAGAUGGGCUUUCAGU (structured_RNA) [10L10_UGU]             Kd            3.43
